- protocol.description: Viscosity of ISIS antisense oligonucleotides, micro-viscometer at 25 °C (Example 47)
- Type: physicochemical
- measurement.context: concentration of the viscosity sample, UV reading at 260 nM at 85° C.
Strand notation (5' to 3'): a small letter for the sugar, then the base; units joined by * are phosphorothioate-linked, units joined directly phosphodiester-linked; [ ] holds rarer units or linkages, { } end groups; capitals alone tell only the bases. e = 2'-O-(2-methoxyethyl) (MOE); [5mC] = 5-methylcytosine; d = 2'-deoxy (DNA)
Give measured Concentration for each item. Keep answers brief.
Respond with the bare value in mg/mL.

Exercise: Tell me the measured Concentration of 416858 (antisense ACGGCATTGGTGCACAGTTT; 5-10-5 gapmer, further chemistry not given here) [compound 416858] , please.
Solution: 166

Exercise: Tell me the measured Concentration of 413482 (antisense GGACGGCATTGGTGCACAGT; 5-10-5 MOE gapmer, further chemistry not given here) [compound 413482] , please.
Solution: 172

Exercise: Tell me the measured Concentration of 416860 (antisense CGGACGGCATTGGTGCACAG; 5-10-5 gapmer, further chemistry not given here) [compound 416860] , please.
Solution: 154

Exercise: Tell me the measured Concentration of 445498 (antisense eG*eG*eT*eG*e[5mC]*eA*d[5mC]*dA*dG*dT*dT*dT*d[5mC]*dT*eG*eG*e[5mC]*eA*eG*eG) [compound 445498] , please.
Solution: 157

Exercise: Tell me the measured Concentration of 416859 (antisense GACGGCATTGGTGCACAGTT; 5-10-5 gapmer, further chemistry not given here) [compound 416859] , please.
Solution: 161

Exercise: Tell me the measured Concentration of 412225 (antisense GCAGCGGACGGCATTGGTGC; 5-10-5 MOE gapmer, further chemistry not given here) [compound 412225] , please.
Solution: 162

Exercise: Tell me the measured Concentration of 449710 (antisense e[5mC]*eA*e[5mC]*dA*dG*dT*dT*dT*d[5mC]*dT*dG*dG*d[5mC]*eA*eG*eG) [compound 449710] , please.
Solution: 186

Exercise: Tell me the measured Concentration of 416861 (antisense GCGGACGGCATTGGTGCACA; 5-10-5 gapmer, further chemistry not given here) [compound 416861] , please.
Solution: 110

Exercise: Tell me the measured Concentration of 416850 (antisense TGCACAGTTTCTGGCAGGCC; 5-10-5 gapmer, further chemistry not given here) [compound 416850] , please.
Solution: 152

Exercise: Tell me the measured Concentration of 449707 (antisense e[5mC]*eA*e[5mC]*eA*dG*dT*dT*dT*d[5mC]*dT*dG*dG*e[5mC]*eA*eG*eG) [compound 449707] , please.
Solution: 166

Exercise: Tell me the measured Concentration of 416851 (antisense GTGCACAGTTTCTGGCAGGC; 5-10-5 gapmer, further chemistry not given here) [compound 416851] , please.
Solution: 187

Exercise: Tell me the measured Concentration of 416852 (antisense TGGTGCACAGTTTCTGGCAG; 5-10-5 gapmer, further chemistry not given here) [compound 416852] , please.
Solution: 169

Exercise: Tell me the measured Concentration of 416848 (antisense CACAGTTTCTGGCAGGCCTC; 5-10-5 gapmer, further chemistry not given here) [compound 416848] , please.
Solution: 158

Exercise: Tell me the measured Concentration of 449709 (antisense eG*e[5mC]*eA*e[5mC]*dA*dG*dT*dT*dT*d[5mC]*dT*dG*dG*d[5mC]*eA*eG*eG*e[5mC]) [compound 449709] , please.
Solution: 171

Exercise: Tell me the measured Concentration of 445509 (antisense e[5mC]*eG*eG*eA*e[5mC]*eG*dG*d[5mC]*dA*dT*dT*dG*dG*dT*eG*e[5mC]*eA*e[5mC]*eA*eG) [compound 445509] , please.
Solution: 167

Exercise: Tell me the measured Concentration of 412223 (antisense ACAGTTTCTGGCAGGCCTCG; 5-10-5 MOE gapmer, further chemistry not given here) [compound 412223] , please.
Solution: 163
